- system_under_test: human serotonin transporter (SERT) (Homo sapiens)
- Construct: purchased PerkinElmer RBHSTM400UA
- Sequence (P31645 whole entry): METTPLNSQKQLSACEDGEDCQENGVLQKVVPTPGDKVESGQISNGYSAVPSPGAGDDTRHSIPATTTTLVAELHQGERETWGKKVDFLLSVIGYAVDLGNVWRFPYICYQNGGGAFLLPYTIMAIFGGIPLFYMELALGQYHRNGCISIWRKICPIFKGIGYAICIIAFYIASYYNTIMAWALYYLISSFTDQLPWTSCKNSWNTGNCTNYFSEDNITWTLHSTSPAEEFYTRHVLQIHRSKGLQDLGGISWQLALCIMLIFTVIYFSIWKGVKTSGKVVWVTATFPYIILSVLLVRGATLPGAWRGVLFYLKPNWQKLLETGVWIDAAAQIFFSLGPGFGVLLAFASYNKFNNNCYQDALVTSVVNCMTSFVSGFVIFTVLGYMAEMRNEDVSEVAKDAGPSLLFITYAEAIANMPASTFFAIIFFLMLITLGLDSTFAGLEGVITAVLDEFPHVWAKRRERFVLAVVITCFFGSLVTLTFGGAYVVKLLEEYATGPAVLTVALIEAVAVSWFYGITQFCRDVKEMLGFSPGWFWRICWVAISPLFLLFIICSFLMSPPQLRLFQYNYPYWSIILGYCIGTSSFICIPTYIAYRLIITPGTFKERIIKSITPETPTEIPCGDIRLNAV
- protocol_text: biochemical
- Assay type: binding
- test_conditions: 1 nM imipramine; membranes containing human SERT; read-out: SERT, Ki
Quick reference for pKi among some compounds
To interpret pKi, take it as minus log10 of a concentration measured in moles per litre.

1) CN(C)CCc1c[nH]c2cc(F)cc(N3CCOCC3)c12
5.04
2) COc1cc(CCN)c(OC)cc1Br [Compound 2C-B, reference compound]
4.94
3) CN(C)CCc1c[nH]c2cc(N3CCCC3)cc(F)c12
4.41
4) CN(C)CCc1c[nH]c2cc(N3CCC3)ccc12
5.77

Now look at this entry.
Input line: Consider the compound shown here: CN(C)CCc1c[nH]c2ccccc12 [DMT, dimethyltryptamine, reference compound] What is its recorded pKi?
Output line: 5.59

###

- Test system: human model (NT2) neurons
- protocol_text: Neuroplastogenicity (neurite outgrowth) assay in NT2 neurons
- Format: cell-based
- Set-up: key: a positive (+) designation indicating strong evidence of enhanced neurite outgrowth in drug-treated NT2 cells compared to vehicle-treated cells; a negative (−) designation indicating weak or no evidence of enhanced neurite outgrowth in drug-treated NT2 cells compared to vehicle-treated cells
- test_conditions: 1 or 10 μM, 48 h, visual inspection vs vehicle (0.1% DMSO)
value_type: Evidence of neurite outgrowth: Yes (+) or No (−)

Observe how each entry below is paired with its result.
1. CCN(CC)CCc1c[nH]c2cc(F)cc(N3CCOCC3)c12
−
2. CN(C)CCc1c[nH]c2ccc(N3CCOCC3)cc12
+
3. CN(C)CCc1c[nH]c2cc(N3CCOCC3)ccc12
−
4. CC(=O)c1[nH]c2cc(F)c(N3CCOCC3)cc2c1CCN(C)C
−
5. C[C@@H](N)[C@H]1CC[C@H](C(=O)Nc2ccncc2)CC1 [RhoK, reference compound]
+
6. CN(C)CCc1c[nH]c2ccccc12 [DMT, dimethyltryptamine, reference compound]
+
7. CN(C)CCc1c[nH]c2cc(N3CCC3)ccc12
+
8. CC(C)N(C)CCc1c[nH]c2cc(N3CCOCC3)c(F)cc12
+

Field: next compound
Input line: Kindly state the measured Evidence of neurite outgrowth: Yes (+) or No (−) obtained for COc1ccc2c3c([nH]c2c1)CCN(C)CC3 [TBG, tabernanthalog, reference compound] with human model (NT2) neurons.
Output line: +

###

UniProtKB P08908: reported pKi for various molecules.
Sequence (P08908 whole entry): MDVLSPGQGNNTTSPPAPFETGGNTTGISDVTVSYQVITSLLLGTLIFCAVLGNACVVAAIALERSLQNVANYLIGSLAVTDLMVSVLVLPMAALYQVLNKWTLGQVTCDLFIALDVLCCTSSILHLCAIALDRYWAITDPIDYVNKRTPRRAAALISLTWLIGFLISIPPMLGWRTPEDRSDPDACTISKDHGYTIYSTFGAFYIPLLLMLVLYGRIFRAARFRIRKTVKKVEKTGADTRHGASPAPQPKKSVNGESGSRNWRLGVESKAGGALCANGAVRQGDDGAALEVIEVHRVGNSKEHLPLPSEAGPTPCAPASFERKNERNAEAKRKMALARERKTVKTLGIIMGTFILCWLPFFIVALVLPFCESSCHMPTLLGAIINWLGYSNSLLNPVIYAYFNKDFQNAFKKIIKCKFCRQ
// field semantics: pKi = negative decimal log of concentration (mol/L)

Use these answered entries as a reference point.
1. CN(C)CCc1c[nH]c2cc(F)cc(N3CCOCC3)c12
5.74
2. CNC(C)Cc1ccc2c(c1)OCO2 (stereo not shown) [MDMA, 3,4-methylenedioxymethamphetamine, reference compound]
4.96
3. CN(C)CCc1c[nH]c2cc(N3CCCC3)cc(F)c12
4.74

Please look at the following molecule next.
Input line: Quick one: pKi for CN(C)CCc1c[nH]c2cc(N3CCC3)ccc12 ?
Output line: 4.68

###

- system_under_test: 5-HT2A receptor (Homo sapiens, UniProt P28223)
- Construct: purchased PerkinElmer ES-313-M400UA
- Sequence (P28223 whole entry): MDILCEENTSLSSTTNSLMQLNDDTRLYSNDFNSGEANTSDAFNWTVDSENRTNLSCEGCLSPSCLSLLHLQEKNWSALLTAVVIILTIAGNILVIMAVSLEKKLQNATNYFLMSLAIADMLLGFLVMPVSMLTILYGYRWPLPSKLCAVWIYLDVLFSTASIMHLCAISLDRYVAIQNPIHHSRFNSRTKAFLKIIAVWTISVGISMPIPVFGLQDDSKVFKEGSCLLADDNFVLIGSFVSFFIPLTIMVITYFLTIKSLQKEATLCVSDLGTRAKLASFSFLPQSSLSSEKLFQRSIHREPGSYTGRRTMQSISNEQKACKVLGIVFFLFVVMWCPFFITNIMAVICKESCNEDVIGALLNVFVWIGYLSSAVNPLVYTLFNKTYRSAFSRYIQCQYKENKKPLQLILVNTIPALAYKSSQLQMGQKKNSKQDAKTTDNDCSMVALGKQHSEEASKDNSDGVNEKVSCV
- protocol_text: 5-HT2A receptor radioligand competition assay (SPA, [3H]ketanserin)
- Format: binding
- test_conditions: 1 nM [3H]ketanserin; membranes containing 5-HT2A; read-out: 5-HT2A, Ki
// reported log10(Ki) for each item listed
Log scale reminder: Ki in µM, then log10 taken.

The examples below pair each entry with its known result.
1. CN(C)CCc1c[nH]c2cc(N3CCOCC3)c(F)cc12 [Compound (XI)]
-0.15
2. CN(C)CCc1c[nH]c2ccc(N3CCC3)cc12 [Compound (VI)]
1.08
3. CN(C)CCc1c[nH]c2cc(Cl)cc(N3CCN(C)CC3)c12 [Compound (XXIII)]
1.10
4. CN(C)CCc1c[nH]c2cc(N3CCCC3)cc(F)c12 [Compound (XVIII)]
0.79
5. CN(C)CCc1c[nH]c2cc(N3CCOCC3)ccc12 [Compound (VIII)]
1.04
6. CCN(CC)CCc1c[nH]c2cc(F)ccc12 [Compound 6-F-DET, 6-fluoro-diethyltryptamine, reference compound]
-0.46
7. CN(CCc1c[nH]c2cc(N3CCOCC3)c(F)cc12)Cc1ccccc1 [Compound (XX)]
1.41
8. CN(C)CCc1c[nH]c2cc(F)c(N3CCOCC3)cc12 [Compound (VII)]
1.81
9. CC(=O)c1[nH]c2cc(F)c(N3CCOCC3)cc2c1CCN(C)C [Compound (IX)]
1.15
10. CN(C)CCc1c[nH]c2ccc(N3CCOCC3)cc12 [Compound (V)]
1.18

Input line: # query: log10(Ki) of entry CN(C)CCc1c[nH]c2cc(N3CCC3)ccc12 [Compound (XII)]
Output line: 1.37

Input line: Another molecule to check: COc1ccc2c3c([nH]c2c1)CCN(C)CC3 [TBG, tabernanthalog, reference compound]
Output line: -0.10
